Experiment: Measurement of Compound Metabolic Stability in hepatocytes
// returns FALSE unless half-life at 1 μM is strictly below 20 min, in which case TRUE

These recorded examples may help you get a feel for the data.
> print(dat)
                                   compound  class.label
1  Cc1nc2c(F)cc(-c3nc(Nc4ccc(CN5CCO[C@](C)(CCN6CC(F)(F)C6)C5)cn4)ncc3F)cc2n1C(C)C [Compound A12]         TRUE
2  Cc1nc2c(F)cc(-c3nc(Nc4ccc(CN5CCN(C)C(C)(C)C5)cn4)ncc3F)cc2n1C(C)C [Compound A43]        FALSE
3  CC(=O)c1c(C)c2cnc(Nc3ccc(N4CCNCC4)cn3)nc2n(C2CCCC2)c1=O [Palbociclib, reference compound]        FALSE
4  Cc1nc2c(F)cc(-c3nc(Nc4ccc(CN5CCO[C@](C)(CCN6CCC6)C5)cn4)ncc3F)cc2n1C(C)C [Compound A17]        FALSE

In the following, a different compound is considered.
Lookup: For Cc1nc2c(F)cc(-c3nc(Nc4ccc(CN5CCO[C@](C)(C[C@H](C)N(C)C)C5)cn4)ncc3F)cc2n1C(C)C [Compound A27] , is the recorded half-life at 1 μM below the cut-off of 20 min?
Found: FALSE

---

Target: CDK6 (Homo sapiens (Human), UniProt Q00534)
Sequence (Q00534 whole entry): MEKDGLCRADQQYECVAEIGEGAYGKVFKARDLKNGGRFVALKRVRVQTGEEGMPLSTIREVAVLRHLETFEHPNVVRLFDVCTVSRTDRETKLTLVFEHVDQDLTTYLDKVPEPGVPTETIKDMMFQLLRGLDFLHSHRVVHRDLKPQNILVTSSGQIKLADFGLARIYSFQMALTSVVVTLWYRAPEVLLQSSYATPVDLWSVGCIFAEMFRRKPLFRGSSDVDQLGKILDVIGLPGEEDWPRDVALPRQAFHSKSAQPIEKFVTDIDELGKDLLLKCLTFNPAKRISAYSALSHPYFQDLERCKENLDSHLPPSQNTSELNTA
Sequence (P24385 whole entry partner): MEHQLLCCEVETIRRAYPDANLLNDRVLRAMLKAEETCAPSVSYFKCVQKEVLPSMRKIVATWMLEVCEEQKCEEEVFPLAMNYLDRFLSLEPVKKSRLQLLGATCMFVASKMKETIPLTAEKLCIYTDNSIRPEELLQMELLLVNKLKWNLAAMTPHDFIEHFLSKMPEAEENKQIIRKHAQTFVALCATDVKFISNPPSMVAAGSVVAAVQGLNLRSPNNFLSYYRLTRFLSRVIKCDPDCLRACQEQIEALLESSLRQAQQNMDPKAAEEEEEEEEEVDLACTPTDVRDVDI
// values below are reported pKi
Expect pKi as a plain number equal to -log10 of the molar concentration.

Solved cases (4 shown):
> print(dat)
                                   compound                               target.desc  observed.result
1  Cc1nc2c(F)cc(-c3nc(Nc4ccc(CN5CCO[C@](C)(C[C@@H](C)N(C)C)C5)cn4)ncc3F)cc2n1C(C)C  CDK6 (Homo sapiens (Human), UniProt Q00534)             8.06
2  CCC[C@@]1(C)CN(Cc2ccc(Nc3ncc(F)c(-c4cc(F)c5nc(C)n(C(C)C)c5c4)n3)nc2)CCN1  CDK6 (Homo sapiens (Human), UniProt Q00534)             8.29
3  CCOCC[C@]1(C)CN(Cc2ccc(Nc3ncc(F)c(-c4cc(F)c5nc(C)n(C(C)C)c5c4)n3)nc2)CCO1  CDK6 (Homo sapiens (Human), UniProt Q00534)             6.97
4  Cc1nc2c(F)cc(-c3nc(Nc4ccc(CN5CCO[C@@](C)(C[C@@H](C)N(C)C)C5)cn4)ncc3F)cc2n1C(C)C [Compound A28, methanesulfonate]  CDK6 (Homo sapiens (Human), UniProt Q00534)             8.59

Lookup: Could you share what pKi was measured for Cc1nc2c(F)cc(-c3nc(Nc4ccc(CN5CCOC(C)(CC(C)N(C)C)C5)cn4)ncc3F)cc2n1C(C)C (centres unmarked) [Compound A24] , tested on CDK6 (Homo sapiens (Human), UniProt Q00534)?
Found: 9.80

Lookup: Could you share what pKi was measured for `CC(=O)N1CC[C@]2(CN(Cc3ccc(Nc4ncc(F)c(-c5cc(F)c6nc(C)n(C(C)C)c6c5)n4)nc3)CCO2)C1` , tested on CDK6 (Homo sapiens (Human), UniProt Q00534)?
Found: 8.16

Lookup: Could you share what pKi was measured for `COC(=O)N1CC[C@]2(CN(Cc3ccc(Nc4ncc(F)c(-c5cc(F)c6nc(C)n(C(C)C)c6c5)n4)nc3)CCO2)C1` , tested on CDK6 (Homo sapiens (Human), UniProt Q00534)?
Found: 7.78

Lookup: Could you share what pKi was measured for `Cc1nc2c(F)cc(-c3nc(Nc4ccc(CN5CCN(C)C(C)(C)C5)cn4)ncc3F)cc2n1C(C)C` , tested on CDK6 (Homo sapiens (Human), UniProt Q00534)?
Found: 8.38

Lookup: Could you share what pKi was measured for `Cc1nc2c(F)cc(-c3nc(Nc4ccc(CN5CC6(C5)CS(=O)(=O)C6)cn4)ncc3F)cc2n1C(C)C` , tested on CDK6 (Homo sapiens (Human), UniProt Q00534)?
Found: 8.42

Lookup: Could you share what pKi was measured for CCCC1(C)CN(Cc2ccc(Nc3ncc(F)c(-c4cc(F)c5nc(C)n(C(C)C)c5c4)n3)nc2)CCO1 (centres unmarked) , tested on CDK6 (Homo sapiens (Human), UniProt Q00534)?
Found: 8.71

Lookup: Could you share what pKi was measured for Cc1nc2c(F)cc(-c3nc(Nc4ccc(CN5CCOC(C)(CC(C)N(C)C)C5)cn4)ncc3F)cc2n1C(C)C (centres unmarked) [Compound A25] , tested on CDK6 (Homo sapiens (Human), UniProt Q00534)?
Found: 8.46

Lookup: Could you share what pKi was measured for `Cc1nc2c(F)cc(-c3nc(Nc4ccc(CN5CCO[C@](C)(CCN6CCOCC6)C5)cn4)ncc3F)cc2n1C(C)C` , tested on CDK6 (Homo sapiens (Human), UniProt Q00534)?
Found: 8.15

Lookup: Could you share what pKi was measured for `Cc1nc2c(F)cc(-c3nc(Nc4ccc(CN5CCO[C@@]6(CCN(S(C)(=O)=O)C6)C5)cn4)ncc3F)cc2n1C(C)C` , tested on CDK6 (Homo sapiens (Human), UniProt Q00534)?
Found: 7.99

Lookup: Could you share what pKi was measured for `Cc1nc2c(F)cc(-c3nc(Nc4ccc(CN5CCO[C@](C)(CCN6CC(F)(F)C6)C5)cn4)ncc3F)cc2n1C(C)C` , tested on CDK6 (Homo sapiens (Human), UniProt Q00534)?
Found: 7.89

---

Tested on: CYP isozymes (IC50s averaged over the isozymes)
Assay: in vitro
Conditions: human
ASSAY_METRIC: IC50 at 10 min
Form entry: enter the amount, then its unit.

Lookup: I have this molecule here, Cc1nc2c(F)cc(-c3nc(Nc4ccc(CN5CCO[C@](C)(CCN6CC6C)C5)cn4)ncc3F)cc2n1C(C)C (stereo partly shown) , and I need its recorded IC50 at 10 min.
Found: 29.2 µM

---

Ki values recorded for CDK6 (Homo sapiens (Human), UniProt Q00534)
Number in nM, nothing else.

Solved cases (3 shown):
> print(dat)
                                  structure  assay.metric  observed.result
1  Cc1nc2c(F)cc(-c3nc(Nc4ccc(CN5CCO[C@@](C)(CCN(C)C)C5)cn4)ncc3F)cc2n1C(C)C            Ki              2.9
2  Cc1nc2c(F)cc(-c3nc(Nc4ccc(CN5CCO[C@@](C)(C[C@H](C)N(C)C)C5)cn4)ncc3F)cc2n1C(C)C            Ki             6.47
3  Cc1nc2c(F)cc(-c3nc(Nc4ccc(CN5CCO[C@](C)(CCN(C)C)C5)cn4)ncc3F)cc2n1C(C)C            Ki             3.38

Attention now shifts to the item below.
Lookup: Could you share what Ki was measured for `CCN(CC)C(=O)C[C@]1(C)CN(Cc2ccc(Nc3ncc(F)c(-c4cc(F)c5nc(C)n(C(C)C)c5c4)n3)nc2)CCO1` , tested on CDK6 (Homo sapiens (Human), UniProt Q00534)?
Found: 24

---

Assay: Measurement of Compound Metabolic Stability in hepatocytes
ASSAY_METRIC: log10 half-life at 1 μM (log10 of the value in min)
Scale type: logarithmic (base 10). Underlying half-life at 1 μM unit: min.

Solved cases (5 shown):
> print(dat)
                                   molecule  observed.result
1  Cc1nc2c(F)cc(-c3nc(Nc4ccc(CN5CCO[C@](C)(CCNCC(F)F)C5)cn4)ncc3F)cc2n1C(C)C [Compound A6]             1.15
2  Cc1nc2c(F)cc(-c3nc(Nc4ccc(CN5CCO[C@](C)(CCN6CC(C)(O)C6)C5)cn4)ncc3F)cc2n1C(C)C [Compound A10]             1.82
3  Cc1nc2c(F)cc(-c3nc(Nc4ccc(CN5CCO[C@](C)(CCN6CC[C@@H](F)C6)C5)cn4)ncc3F)cc2n1C(C)C [Compound A15]             1.29
4  Cc1nc2c(F)cc(-c3nc(Nc4ccc(CN5CCO[C@](C)(CCN)C5)cn4)ncc3F)cc2n1C(C)C [Compound A21]             1.98
5  Cc1nc2c(F)cc(-c3nc(Nc4ccc(CN5CCO[C@](C)(CCN(C)CC(F)F)C5)cn4)ncc3F)cc2n1C(C)C [Compound A29]             0.77

Attention now shifts to the item below.
Lookup: I have this molecule here, CCN(CC)CCC1(C)CN(Cc2ccc(Nc3ncc(F)c(-c4cc(F)c5nc(C)n(C(C)C)c5c4)n3)nc2)CCO1 (stereo in doubt) [Compound A3] , and I need its recorded log10 half-life at 1 μM.
Found: 2.11
